Biological target: human cannabinoid CB2 receptor (Homo sapiens, UniProt P34972)
Sequence (P34972 whole entry): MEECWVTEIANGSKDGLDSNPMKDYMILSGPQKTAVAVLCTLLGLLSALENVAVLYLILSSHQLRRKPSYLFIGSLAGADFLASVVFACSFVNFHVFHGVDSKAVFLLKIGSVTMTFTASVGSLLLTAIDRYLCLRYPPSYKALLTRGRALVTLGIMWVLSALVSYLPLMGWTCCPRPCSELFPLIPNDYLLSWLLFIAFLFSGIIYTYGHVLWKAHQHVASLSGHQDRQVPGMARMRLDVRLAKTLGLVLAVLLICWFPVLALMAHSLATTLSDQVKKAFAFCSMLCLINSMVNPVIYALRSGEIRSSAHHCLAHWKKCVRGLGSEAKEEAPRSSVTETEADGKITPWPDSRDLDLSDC
Test: biochemical
Assay type: binding
Settings: cloned human CB2 receptor expressed in CHO cells; read-out: Affinity to CB2 (converted)
Experimental: 3. In Vitro Binding Affinity of the Test Compounds to CB2 Receptors After incubation of a freshly prepared cell membrane preparation with the [^3H]-ligand, with or without the addition of the compounds described herein, separation of bound and free ligand is performed by filtration over glass-fiber filters. Radioactivity on the filter is measured by liquid scintillation counting.
hey, just use criterion met if measured Ki is less than 400 nM, otherwise criterion not met

For orientation, consider the following solved cases.
[[record]]
molecule = "CNC(=NS(=O)(=O)N1CCCCC1)N1CC(c2cccc(F)c2)C(c2ccc(Cl)cc2)=N1 (centres unmarked)"
class = "criterion not met"

[[record]]
molecule = "O=S(=O)(N=C(NCc1cccnc1)N1CC(c2ccccc2)C(c2ccc(Cl)cc2)=N1)c1ccc(Cl)cc1 (centres unmarked)"
class = "criterion not met"

[[record]]
molecule = "CCc1c(C(=O)NN2CCCCC2)nc(-c2ncccc2C)n1-c1ccc(Cl)cc1"
class = "criterion met"


**Query** Does the reported Ki of CSc1c(C(=O)NN2CCCCC2)nc(-c2ccc(Cl)cc2Cl)n1-c1ccc(Cl)cc1 stay below 400 nM?
**Result** criterion not met

---

Target: hamster SUR1 (Cricetus cricetus, UniProt Q09427)
Construct: expressed in transfected cells; host or cells: COS-1 cells, transient (pcDNA vector)
Sequence (Q09427 whole entry): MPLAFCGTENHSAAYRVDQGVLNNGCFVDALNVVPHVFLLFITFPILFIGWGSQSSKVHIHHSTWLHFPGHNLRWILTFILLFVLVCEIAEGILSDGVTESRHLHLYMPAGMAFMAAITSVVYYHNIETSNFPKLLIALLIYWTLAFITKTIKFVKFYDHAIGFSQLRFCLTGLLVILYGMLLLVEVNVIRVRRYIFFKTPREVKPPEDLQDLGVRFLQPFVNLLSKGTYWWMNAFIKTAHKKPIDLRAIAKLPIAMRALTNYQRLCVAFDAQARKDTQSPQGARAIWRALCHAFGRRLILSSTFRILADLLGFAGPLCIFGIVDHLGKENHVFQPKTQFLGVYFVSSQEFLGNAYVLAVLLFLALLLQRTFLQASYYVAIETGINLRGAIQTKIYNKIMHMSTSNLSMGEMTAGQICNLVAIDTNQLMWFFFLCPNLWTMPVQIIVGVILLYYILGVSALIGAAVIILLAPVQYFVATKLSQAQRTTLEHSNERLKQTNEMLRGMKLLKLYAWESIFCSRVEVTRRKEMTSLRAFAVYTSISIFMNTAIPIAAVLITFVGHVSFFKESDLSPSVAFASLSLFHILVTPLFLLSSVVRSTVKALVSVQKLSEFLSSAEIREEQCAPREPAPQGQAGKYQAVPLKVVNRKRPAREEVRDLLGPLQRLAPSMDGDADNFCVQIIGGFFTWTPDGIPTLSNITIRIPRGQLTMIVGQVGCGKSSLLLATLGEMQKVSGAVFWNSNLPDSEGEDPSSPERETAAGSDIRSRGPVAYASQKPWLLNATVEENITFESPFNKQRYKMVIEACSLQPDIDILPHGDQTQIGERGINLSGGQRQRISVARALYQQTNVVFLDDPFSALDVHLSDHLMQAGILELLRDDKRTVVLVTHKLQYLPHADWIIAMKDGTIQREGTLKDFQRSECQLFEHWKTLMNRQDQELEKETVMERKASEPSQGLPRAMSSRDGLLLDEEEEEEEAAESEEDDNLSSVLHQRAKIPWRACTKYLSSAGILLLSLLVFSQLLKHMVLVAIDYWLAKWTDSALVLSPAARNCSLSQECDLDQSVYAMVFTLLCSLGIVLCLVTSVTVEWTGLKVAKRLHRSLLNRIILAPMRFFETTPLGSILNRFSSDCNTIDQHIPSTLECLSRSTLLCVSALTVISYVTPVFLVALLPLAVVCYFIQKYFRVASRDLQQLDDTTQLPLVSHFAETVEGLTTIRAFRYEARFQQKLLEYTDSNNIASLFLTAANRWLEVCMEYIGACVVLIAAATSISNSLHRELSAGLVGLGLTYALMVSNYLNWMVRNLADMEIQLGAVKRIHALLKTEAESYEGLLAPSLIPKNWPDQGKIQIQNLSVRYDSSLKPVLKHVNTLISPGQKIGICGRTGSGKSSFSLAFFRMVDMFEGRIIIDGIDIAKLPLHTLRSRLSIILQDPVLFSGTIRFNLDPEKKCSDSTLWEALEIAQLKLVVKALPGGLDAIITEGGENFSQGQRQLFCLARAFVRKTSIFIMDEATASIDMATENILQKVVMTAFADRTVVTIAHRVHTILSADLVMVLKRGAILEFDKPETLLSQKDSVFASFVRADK
Assay: In vitro binding affinity to rodent KATP channels: SUR1 ([3H]glibenclamide displacement, COS cell membranes)
Conditions: hamster SUR1 in COS cell membranes; read-out: Affinity to SUR 1 (converted)
Description: 1. In Vitro Binding Affinity of the Test Compounds to Rodent KATP Channels Competitive binding experiments were performed to characterize the affinity of the test compounds for the binding sites for sulfonylureas and KATP channel openers (KCOS) on hamster SUR1. […] For each test compound four displacement curves were measured (+/−MgATP from the human and hamster isoform). […]
// assign True if Ki falls strictly below 5 µM, else False (ties count as False)

[[record]]
compound = "CCCCCc1nc(-c2ccc(Cl)cc2Cl)n(-c2ccc(Cl)cc2)c1C"
assayed_system = "hamster SUR1 (Cricetus cricetus, UniProt Q09427)"
class = "True"

[[record]]
compound = "CCNCCN/C(=N\\S(=O)(=O)c1ccc(Cl)cc1)N1CC(c2ccccc2)C(c2ccc(Cl)cc2)=N1 (centres unmarked)"
assayed_system = "hamster SUR1 (Cricetus cricetus, UniProt Q09427)"
class = "False"

[[record]]
compound = "CCCCCNC(=O)c1nc(-c2ccc(Cl)cc2Cl)n(-c2ccc(Br)cc2)c1CC"
assayed_system = "hamster SUR1 (Cricetus cricetus, UniProt Q09427)"
class = "True"

[[record]]
compound = "CCc1c(C(=O)NN2CCCCC2)nc(-c2ncccc2C)n1-c1ccc(Cl)cc1"
assayed_system = "hamster SUR1 (Cricetus cricetus, UniProt Q09427)"
class = "False"


We next turn to a different compound, shown below.
**Query** Quick check: Ki of O=S(=O)(N=C(NCC1CC1)N1CC(c2ccccc2)C(c2ccc(Cl)cc2)=N1)N1CCOCC1 (centres unmarked) under 5 µM?
**Result** True

---

System: rat perifused pancreatic islets
Assay: KATP opening effects through insulin secretion in rat perifused pancreatic islets
Format: cell-based
Settings: 11 mM glucose, 30-60 minutes
recorded-metric: % Inhibition 30-60 (insulin secretion) (%)
Only the number, expressed in %, is required.

# annotated cases, reported % Inhibition 30-60 (insulin secretion) shown
[[record]]
compound = "CN/C(=N\\S(=O)(=O)c1ccc(Cl)cc1)N1C[C@@H](c2ccccc2)C(c2ccc(Cl)cc2)=N1 (stereo in doubt)"
value_observed = 25

[[record]]
compound = "CN/C(=N\\S(=O)(=O)c1ccc(Cl)cc1)N1C[C@H](c2ccccc2)C(c2ccc(Cl)cc2)=N1"
value_observed = 22

[[record]]
compound = "CON/C(=N\\S(=O)(=O)c1ccc(Cl)cc1)N1C[C@H](c2cccc(F)c2)C(c2ccc(Cl)cc2)=N1 (stereo in doubt)"
value_observed = 95


**Query** Report % Inhibition 30-60 (insulin secretion) for CNC(=NS(=O)(=O)N1CCCCC1)C1=NN(c2ccc(Cl)cc2)C(c2ccccc2)C1 (stereo not shown) please.
**Result** 47

---

Quick reference for Ki among some compounds
Biological target: human cannabinoid CB2 receptor (Homo sapiens, UniProt P34972)
Assay: biochemical
Assay type: binding
Conditions: cloned human CB2 receptor expressed in CHO cells; read-out: Affinity to CB2 (converted)
Field: numeric (nM). Do not append units.

[[record]]
compound = "CCc1c(C(=O)NC2CCCCC2)nc(-c2ccc(C)n2C)n1-c1ccccc1"
assayed_system = "human cannabinoid CB2 receptor (Homo sapiens, UniProt P34972)"
units_label = "nM"
value_observed = 158


**Query** For NC(Cc1ccc(Cl)c(Cl)c1)C(=O)N1CC(c2ccccc2)C(c2ccc(Cl)cc2)=N1 (stereo not drawn) , what is its reported Ki?
**Result** 631

**Query** Any idea what its Ki is? The compound is Cc1c(C(=O)NN2CCCCC2)nc(-c2ccc(Cl)cc2Cl)n1-c1ccccn1
**Result** 631

---

Molecular target: hamster SUR1 (Cricetus cricetus, UniProt Q09427)
Construct: expressed in transfected cells; host or cells: COS-1 cells, transient (pcDNA vector)
Assay: In vitro binding affinity to rodent KATP channels: SUR1 ([3H]glibenclamide displacement, COS cell membranes)
Conditions: hamster SUR1 in COS cell membranes; read-out: Affinity to SUR 1 (converted)
Protocol: 1. In Vitro Binding Affinity of the Test Compounds to Rodent KATP Channels Competitive binding experiments were performed to characterize the affinity of the test compounds for the binding sites for sulfonylureas and KATP channel openers (KCOS) on hamster SUR1. […] For each test compound four displacement curves were measured (+/−MgATP from the human and hamster isoform). […]
recorded-metric: Ki (µM)
Use µM as the unit, but write only the number.

[[record]]
compound = "O=C(NN1CCCCC1)c1nc(-c2ccc(Cl)cc2Cl)n(-c2ccc(Cl)cc2)c1CC(F)(F)F"
assayed_system = "hamster SUR1 (Cricetus cricetus, UniProt Q09427)"
recorded_metric = "Ki"
value_observed = 15.8

[[record]]
compound = "O=S(=O)(N=C(NCC1CCNCC1)N1CC(c2ccccc2)C(c2ccc(Cl)cc2)=N1)c1ccc(Cl)cc1 (stereo not drawn)"
assayed_system = "hamster SUR1 (Cricetus cricetus, UniProt Q09427)"
recorded_metric = "Ki"
value_observed = 0.631

[[record]]
compound = "CC(C)(CO)CN/C(=N\\S(=O)(=O)c1ccc(Cl)cc1)N1CC(c2ccccc2)C(c2ccc(Cl)cc2)=N1 (stereo not drawn)"
assayed_system = "hamster SUR1 (Cricetus cricetus, UniProt Q09427)"
recorded_metric = "Ki"
value_observed = 31.6

[[record]]
compound = "O=C(NN1CCCCC1)c1cn(-c2ccc(C(F)(F)F)cc2)c(-c2ccccc2Cl)n1"
assayed_system = "hamster SUR1 (Cricetus cricetus, UniProt Q09427)"
recorded_metric = "Ki"
value_observed = 1

[[record]]
compound = "CCc1c(C(=O)NN2CCCCC2)nc(-c2ccccc2Cl)n1-c1ccc(Cl)cn1"
assayed_system = "hamster SUR1 (Cricetus cricetus, UniProt Q09427)"
recorded_metric = "Ki"
value_observed = 100


**Query** I would be grateful if you could share the reported Ki for CN/C(=N\S(=O)(=O)c1ccc(Cl)cc1)N1C[C@@H](c2ccccc2)C(c2ccc(Cl)cc2)=N1 .
**Result** 1

**Query** Could you tell me which Ki is on file for Cn1c(C(=O)NN2CCCCC2)nc(-c2cc(Cl)ccc2Cl)c1-c1ccc(Cl)cc1 ?
**Result** 25.1

**Query** Which value of Ki has been reported for Cc1c(C=C(c2cc(F)cc(F)c2)S(C)(=O)=O)nn(-c2ccc(Cl)cc2Cl)c1-c1ccc(Br)cc1 in the records?
**Result** 100

**Query** Dear colleague, I am looking for the recorded Ki of the following compound: Cn1c(C(=O)NC2CCCCC2)nc(-c2ccc(Cl)cc2)c1-c1ccc(Cl)cc1Cl
**Result** 100

**Query** Fill in the blank: the reported Ki of Cc1c(C(=O)NN2CCCCC2)nc(-c2ccc(Cl)cc2Cl)n1-c1ccccn1 is ____.
**Result** 100

**Query** Entry O=C(NN1CCCCC1)c1nc(-c2ccc(Cl)cc2Cl)n(-c2ccc(Br)cc2)c1Cl has what Ki?
**Result** 3.98

**Query** Field request: Ki | item: Cc1ccc(Cn2nc(C(=O)N[C@@H]3C(C)(C)[C@@H]4CC[C@@]3(C)C4)cc2-c2ccc(Cl)c(C)c2)cc1 [SR 144528, reference compound]
**Result** 0.126

**Query** Recorded Ki of O=S(=O)(N=C(NCCCCN1CCCC1)N1CC(c2ccccc2)C(c2ccc(Cl)cc2)=N1)c1ccc(Cl)cc1 (stereo not drawn) , please.
**Result** 50.1
